method-summary: qHTS assay to identify small molecule agonists of the estrogen related receptor signaling pathway with the pleiotropic PPARgamma coactivator (PGC) from Tox21 10K library (AID 1224842); note: nearly all actives have a fitted effect of over 15% in size
measurement-context: PGC/ERR reporter cell line, luciferase ONE-Glo, 18 h; series mostly up to 92.4 µM
Records with an inconclusive call do not appear. Active and inactive are the calls of the source. Calls come from the whole dose curve; as a rule, active = well fitted activation curve with a large enough effect in the repeat runs; inconclusive = weak or mixed curves, or effect the other way; inactive = no such curve, though single readings can be large or run the other way.
Respond using exactly one of the listed classes: TRUE (active), FALSE (inactive)

The examples below pair each entry with its known result.
CC(C)(O)c1ccc(CNC(=O)c2cccnc2Oc2ccc(F)cc2)cc1; FALSE
O=C(Nc1ccccc1)c1ccccc1O; FALSE
O=[N+]([O-])c1ccc(NCCO)c(OCCO)c1; FALSE
OCc1cc(C(O)CNCCCCCCOCCCCc2ccccc2)ccc1O (configuration not stated); FALSE
CCCCCCCCCCCCCCCCOS(=O)(=O)O; FALSE

[ask] # lookup: test call for CCCCCCCCCCCCCCOS(=O)(=O)O
[reply] FALSE

[ask] # lookup: test call for CC(C)CC(=O)C1C(=O)c2ccccc2C1=O
[reply] FALSE

[ask] # lookup: test call for Nc1cccc([N+](=O)[O-])c1
[reply] FALSE

[ask] # lookup: test call for CN(C)c1ccc(C(c2ccccc2)c2ccc(N(C)C)cc2)cc1
[reply] FALSE

[ask] # lookup: test call for NC(=O)C(c1ccccc1)(c1ccccc1)[C@@H]1CCN(CCc2ccc3c(c2)CCO3)C1
[reply] FALSE
